organism: Canis familiaris; assay: Concentration of the test compound required to inhibit the auto oxidative lipid peroxidations in canine brain homogenates by 50% was determined; assay type: functional; settings: Canis lupus familiaris
Assay Readout: IC50
Phrase the answer as number then unit, nothing more needed.

Noted for CN(CC(O)CN1CCN(CCCC(c2ccc(F)cc2)c2ccc(F)cc2)CC1)c1ccccc1 (stereo unspecified) : its IC50 reads 19 µM

Noted for CC(=O)OC(CNc1ccccc1)CN1CCN(CCCC(c2ccc(F)cc2)c2ccc(F)cc2)CC1 (stereo unspecified) : its IC50 reads 13 µM

Noted for OC(CSc1ccccc1)CN1CCN(CCCC(c2ccc(F)cc2)c2ccc(F)cc2)CC1 (stereo unspecified) : its IC50 reads 15 µM

Noted for COC(CNc1ccccc1)CN1CCN(CCCC(c2ccc(F)cc2)c2ccc(F)cc2)CC1 (stereo unspecified) : its IC50 reads 15 µM

Noted for CC(=O)OC(CSc1ccccc1)CN1CCN(CCCC(c2ccc(F)cc2)c2ccc(F)cc2)CC1 (stereo unspecified) : its IC50 reads 20 µM

Noted for COC(CSc1ccccc1)CN1CCN(CCCC(c2ccc(F)cc2)c2ccc(F)cc2)CC1 (stereo unspecified) : its IC50 reads 20 µM

Noted for OC(CNc1ccccc1)CN1CCN(CCCC(c2ccc(F)cc2)c2ccc(F)cc2)CC1 (stereo unspecified) : its IC50 reads 6.5 µM
